# Test system: PPARg DBDmut:RXRa IVT, anti-PPARg (DBD mutation: PPARg1 K132A/R137A, NR concentration 270 nM, RXRa partner concentration 90 nM)
# procedure summary: PBM binding z-score (relative to random genomic background probes); higher = stronger binding; sequences stand for … in GC…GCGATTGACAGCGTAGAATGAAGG
Output Y for PBM binding z-score not less than 0.03; output N otherwise.

residue string	assigned category
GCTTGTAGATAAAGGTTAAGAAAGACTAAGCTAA	Y
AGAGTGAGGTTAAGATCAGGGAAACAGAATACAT	Y

API: above_or_equal(metric=PBM binding z-score, cutoff=0.03) for item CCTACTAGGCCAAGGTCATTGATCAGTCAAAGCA
N

Item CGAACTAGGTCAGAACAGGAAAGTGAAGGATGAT with PBM binding z-score of 0.03 or above?
Y

Is PBM binding z-score for TAGCCTAGGTCATACGGGCCAGTATAGTGTCGGC at or above 0.03?
N

Answer whether PBM binding z-score of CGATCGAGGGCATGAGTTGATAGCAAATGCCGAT is greater than or equal to 0.03.
N

Decide: PBM binding z-score of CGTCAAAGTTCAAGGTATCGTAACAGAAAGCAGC >= 0.03?
N

* * *

# Tested on: VDR homodimer (NR concentration 270 nM)
# procedure summary: PBM binding z-score (relative to random genomic background probes); higher = stronger binding; sequences stand for … in GC…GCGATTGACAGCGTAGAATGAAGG
reported endpoint: PBM binding z-score
Answer with a number only.

residue string	PBM binding z-score
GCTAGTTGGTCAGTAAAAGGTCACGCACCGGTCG	2.07
GCTGCTAGGTCAGGTTGGTCAGCTGACGGGTACG	0.505
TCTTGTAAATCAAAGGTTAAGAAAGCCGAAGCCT	-0.116
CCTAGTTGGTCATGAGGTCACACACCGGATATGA	4.1
TCGAGTAGGTCAGGGGCATTCAGAATGGCGTCGA	0.669
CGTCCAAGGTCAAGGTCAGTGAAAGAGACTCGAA	2.89

Please fill in: PBM binding z-score reported for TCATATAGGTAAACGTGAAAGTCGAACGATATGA = -0.33

Sure, the documented PBM binding z-score for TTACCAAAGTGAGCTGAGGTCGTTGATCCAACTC is 1.95

Per the record, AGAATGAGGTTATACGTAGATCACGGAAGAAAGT has PBM binding z-score of 0.934

# PBM binding z-score (sequence: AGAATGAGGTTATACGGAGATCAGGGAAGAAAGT ) is 0.95

The reported value for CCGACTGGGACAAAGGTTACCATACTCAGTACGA in terms of PBM binding z-score is -0.0207

Per the records, this sequence ( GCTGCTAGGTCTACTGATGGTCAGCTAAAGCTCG ) has PBM binding z-score equal to -0.893

* * *

# Test system: THRa:RXRa (NR concentration 90 nM, RXRa partner concentration 90 nM)
# procedure summary: PBM binding z-score (relative to random genomic background probes); higher = stronger binding; sequences stand for … in GC…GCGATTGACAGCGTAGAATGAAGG
Decide by PBM binding z-score: equal to or exceeding 2 means true (1), less means false (0).

In plain terms: is recorded PBM binding z-score at least 2 for TAGCCTAGGTCATGCGGGCCAGGATAGTGTCGGC ?
true (1)

Entry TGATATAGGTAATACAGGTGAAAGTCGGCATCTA : is its PBM binding z-score no less than 2?
false (0)

Say whether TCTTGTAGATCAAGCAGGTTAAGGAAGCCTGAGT shows PBM binding z-score of 2 or more.
false (0)

Check this sequence for PBM binding z-score at or above 2: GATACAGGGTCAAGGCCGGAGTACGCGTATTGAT
true (1)

Hi, just wondering whether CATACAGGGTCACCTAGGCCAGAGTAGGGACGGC shows PBM binding z-score of 2 or higher.
true (1)

* * *

# Test system: PPARg:RXRa 270nM:90nM, anti-RXR (NR concentration 270 nM, RXRa partner concentration 90 nM)
# procedure summary: PBM binding z-score (relative to random genomic background probes); higher = stronger binding; sequences stand for … in GC…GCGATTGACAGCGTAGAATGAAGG
We'd kindly ask you to apply these PBM binding z-score classes: low band (below 1), middle band (1 to below 5), high band (5 or more)

residue string	assigned category
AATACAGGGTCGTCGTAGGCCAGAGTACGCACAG	middle band
AGAACGAGGGCACCCTGAGTTGATAGCAGAGTAG	middle band
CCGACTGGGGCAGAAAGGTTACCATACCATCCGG	middle band

State the band of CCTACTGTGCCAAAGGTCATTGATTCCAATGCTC
high band

Hi there! Could you help me figure out the category for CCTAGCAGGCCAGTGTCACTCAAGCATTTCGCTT please?
low band

Consider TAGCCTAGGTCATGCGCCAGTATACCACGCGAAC . To which PBM binding z-score class does it belong?
middle band

* * *

Below, each entry is listed alongside its reported PBM binding z-score.
# Tested on: PXR:RXRa (NR concentration 270 nM, RXRa partner concentration 90 nM)
# procedure summary: PBM binding z-score (relative to random genomic background probes); higher = stronger binding; sequences stand for … in GC…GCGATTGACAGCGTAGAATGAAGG
The response must contain the number and no unit.

See these solved cases before continuing.
residue string	assay target	PBM binding z-score
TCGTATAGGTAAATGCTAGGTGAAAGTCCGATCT	PXR:RXRa (NR concentration 270 nM, RXRa partner concentration 90 nM)	0.373
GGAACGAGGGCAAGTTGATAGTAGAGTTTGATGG	PXR:RXRa (NR concentration 270 nM, RXRa partner concentration 90 nM)	0.965
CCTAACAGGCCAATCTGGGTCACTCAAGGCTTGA	PXR:RXRa (NR concentration 270 nM, RXRa partner concentration 90 nM)	1.3
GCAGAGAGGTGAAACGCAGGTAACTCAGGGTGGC	PXR:RXRa (NR concentration 270 nM, RXRa partner concentration 90 nM)	0.34
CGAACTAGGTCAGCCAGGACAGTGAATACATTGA	PXR:RXRa (NR concentration 270 nM, RXRa partner concentration 90 nM)	0.744

Attention now turns to another entry.
So, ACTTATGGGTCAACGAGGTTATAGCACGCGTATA ? Its PBM binding z-score was 4.34

* * *

# Test system: PXR:RXRa (NR concentration 270 nM, RXRa partner concentration 90 nM)
# procedure summary: PBM binding z-score (relative to random genomic background probes); higher = stronger binding; sequences stand for … in GC…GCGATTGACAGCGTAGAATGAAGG
Let's look at some sequences and their measured PBM binding z-score.

Here are 10 sequences together with their reported answers.
residue string	assay target	reported endpoint	recorded value
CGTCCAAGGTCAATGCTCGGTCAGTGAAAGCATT	PXR:RXRa (NR concentration 270 nM, RXRa partner concentration 90 nM)	PBM binding z-score	3.93
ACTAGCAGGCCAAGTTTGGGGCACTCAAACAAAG	PXR:RXRa (NR concentration 270 nM, RXRa partner concentration 90 nM)	PBM binding z-score	-0.333
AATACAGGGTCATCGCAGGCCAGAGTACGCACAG	PXR:RXRa (NR concentration 270 nM, RXRa partner concentration 90 nM)	PBM binding z-score	5.07
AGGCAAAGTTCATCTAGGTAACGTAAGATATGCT	PXR:RXRa (NR concentration 270 nM, RXRa partner concentration 90 nM)	PBM binding z-score	5.33
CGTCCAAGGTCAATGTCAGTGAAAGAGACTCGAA	PXR:RXRa (NR concentration 270 nM, RXRa partner concentration 90 nM)	PBM binding z-score	3.36
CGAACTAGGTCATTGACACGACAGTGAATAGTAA	PXR:RXRa (NR concentration 270 nM, RXRa partner concentration 90 nM)	PBM binding z-score	1.33
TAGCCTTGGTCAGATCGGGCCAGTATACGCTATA	PXR:RXRa (NR concentration 270 nM, RXRa partner concentration 90 nM)	PBM binding z-score	-0.578
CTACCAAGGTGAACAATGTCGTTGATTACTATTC	PXR:RXRa (NR concentration 270 nM, RXRa partner concentration 90 nM)	PBM binding z-score	0.327
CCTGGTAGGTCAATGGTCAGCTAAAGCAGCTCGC	PXR:RXRa (NR concentration 270 nM, RXRa partner concentration 90 nM)	PBM binding z-score	1.29
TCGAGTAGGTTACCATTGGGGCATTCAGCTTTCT	PXR:RXRa (NR concentration 270 nM, RXRa partner concentration 90 nM)	PBM binding z-score	0.0838

The sequence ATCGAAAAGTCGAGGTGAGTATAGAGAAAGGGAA showed PBM binding z-score equal to -0.235

Lab note: measured PBM binding z-score of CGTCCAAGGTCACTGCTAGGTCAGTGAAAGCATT was 4.72
